target: Proteinase-activated receptor 2 (Homo sapiens) (UniProt P55085); test: Antagonist activity at PAR2 in human HT-29 cells assessed as inhibition of 2f-LIGRLO-NH2-stimulated intracellular calcium release at 10 uM preincubated for 30 mins followed by 2f-LIGRLO-NH2 stimulation measured for 60 secs by Fluo-3 AM dye based FLIPR assay relative to control; assay type: functional, cell-based
Sequence (P55085 whole entry): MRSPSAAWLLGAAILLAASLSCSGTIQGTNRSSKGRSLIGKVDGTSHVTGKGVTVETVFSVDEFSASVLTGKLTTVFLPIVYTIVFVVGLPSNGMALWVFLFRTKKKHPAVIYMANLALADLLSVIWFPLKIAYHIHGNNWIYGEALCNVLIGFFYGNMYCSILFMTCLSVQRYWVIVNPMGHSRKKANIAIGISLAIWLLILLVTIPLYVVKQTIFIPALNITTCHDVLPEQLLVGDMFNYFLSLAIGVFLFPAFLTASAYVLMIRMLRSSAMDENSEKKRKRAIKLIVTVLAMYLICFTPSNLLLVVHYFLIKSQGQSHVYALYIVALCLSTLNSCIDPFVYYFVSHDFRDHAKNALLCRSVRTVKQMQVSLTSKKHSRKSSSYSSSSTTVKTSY
property: inhibition

{"columns": ["compound.structure", "reported.result"],
 "data": [
  ["CC[C@H](C)[C@H](NC(=O)[C@H](CC1CCCCC1)NC(=O)c1ccno1)C(=O)N1CCC(O)(c2ccc(C(F)(F)F)cc2C(F)(F)F)CC1", "43 to 69%"],
  ["CC[C@H](C)[C@H](NC(=O)[C@H](CC1CCCCC1)NC(=O)c1ccno1)C(=O)N1CCC(c2cc(OC)ccc2OC)CC1", "43 to 69%"],
  ["CC[C@H](C)[C@H](NC(=O)[C@H](CC1CCCCC1)NC(=O)c1c[nH]cn1)C(=O)N1CCC2(C=Cc3ccccc32)CC1", "53%"]
]}

Now look at this one.
Exercise: Requested read-out: inhibition. Entry: O=C(N[C@@H](CC1CCCCC1)C(=O)N[C@@H](CC1CCCCC1)C(=O)N1CCC2(C=Cc3ccccc32)CC1)c1ccno1
Key: 10 to 16%

* * *

assay: Half life in Wistar rat plasma at 10 uM by LC/MS/MS analysis; assay type: ADME, cell-free
Where a SMILES comes first, the peptide text is derived from it.
property: half-life at 10 µM (min)
Output spec: scalar in min, unitless text.

Exercise: Requested read-out: half-life at 10 µM. Entry: CC[C@H](C)[C@H](NC(=O)[C@H](CC(C)C)NC(=O)[C@@H](N)CO)C(=O)NCC(=O)N[C@@H](CCCNC(=N)N)C(=O)N[C@@H](CC(C)C)C(N)=O (H-SLIGRL-NH2)
Key: 20

* * *

// reported inhibition for each item listed
molecular target: Proteinase-activated receptor 2 (Homo sapiens) (UniProt P55085); assay: Antagonist activity at PAR2 in human HT-29 cells assessed as inhibition of 2f-LIGRLO-NH2-stimulated intracellular calcium release at 10 uM preincubated for 30 mins followed by 2f-LIGRLO-NH2 stimulation measured for 60 secs by Fluo-3 AM dye based FLIPR assay relative to control; type: functional, cell-based
Output spec: scalar in %, unitless text.

The cases that follow already have their inhibition on record.
{"columns": ["compound.structure", "unit.info", "inhibition"],
 "data": [
  ["CC[C@H](C)[C@H](NC(=O)[C@H](CC1CCCCC1)NC(=O)c1cscn1)C(=O)N1CCC2(C=Cc3ccccc32)CC1", "%", 70],
  ["CC[C@H](C)[C@H](NC(=O)[C@H](CC1CCCCC1)NC(=O)c1ccno1)C(=O)N1CCC2(CCc3ccccc3O2)CC1", "%", 77],
  ["CC[C@H](C)[C@H](NC(=O)[C@H](CC1CCCCC1)NC(=O)c1ccno1)C(=O)N1CCC2(C=Cc3ccccc32)CC1", "%", 92],
  ["CC[C@H](C)[C@H](NC(=O)[C@H](CC1CCCCC1)NC(=O)c1ccon1)C(=O)N1CCC2(C=Cc3ccccc32)CC1", "%", 27],
  ["CC[C@H](C)[C@H](NC(=O)[C@H](CC1CCCCC1)NC(=O)c1ccno1)C(=O)N1CC[C@H]2CCCC[C@H]2[C@H]1C(=O)NC(C)(C)C", "%", 38],
  ["CC[C@H](C)[C@H](NC(=O)[C@H](CC1CCCCC1)NC(=O)c1nc[nH]n1)C(=O)N1CCC2(C=Cc3ccccc32)CC1", "%", 43]
]}

Exercise: Requested read-out: inhibition. Entry: CC[C@H](C)[C@H](NC(=O)[C@H](CC1CCCCC1)NC(=O)c1cc(CN)no1)C(=O)N1CCC2(C=Cc3ccccc32)CC1
Key: 62

Exercise: # repeat for CC[C@H](C)[C@H](NC(=O)[C@H](CC1CCCCC1)NC(=O)c1ccno1)C(=O)N1CCC(c2ccccc2)CC1
Key: 93

Exercise: # repeat for CC[C@H](C)[C@H](NC(=O)[C@H](CC1CCCCC1)NC(=O)c1cc(N)no1)C(=O)N1CCC2(C=Cc3ccccc32)CC1
Key: 91

Exercise: # repeat for CC[C@H](C)[C@H](NC(=O)[C@H](CC1CCCCC1)NC(=O)c1ccno1)C(=O)N1CCCC[C@H]1C(=O)NC(C)(C)C
Key: 64

Data origin: ChEMBL document CHEMBL3865852
